# system: Human recombinant cathepsin K (Homo sapiens (Human))
# Sequence (P43235 115-329): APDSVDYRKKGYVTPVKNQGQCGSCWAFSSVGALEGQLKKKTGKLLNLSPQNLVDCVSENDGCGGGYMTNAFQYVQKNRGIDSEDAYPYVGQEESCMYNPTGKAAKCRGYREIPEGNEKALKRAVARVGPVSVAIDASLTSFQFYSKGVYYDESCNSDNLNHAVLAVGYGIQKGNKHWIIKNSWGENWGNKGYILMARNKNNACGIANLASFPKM
# assay method text: In vitro cathepsin Ki inhibition measurements
# Assay type: biochemical
# condition set: relative to closest prior art compound (42)
We begin with a simple list: items and their reported fold improvement in in vitro potency against human cathepsin K.
Kindly provide the numeric value in fold only, without the unit symbol.

C[C@H]1CN(C(=O)[C@@H](NC(=O)c2ccc(N3CCN(C)CC3)cc2)C2CCCC2)[C@@H]2C(=O)CO[C@@H]21 ... 24.9
CC(C)[C@@H]1CN(C(=O)[C@@H](NC(=O)c2ccc(N3CCN(C)CC3)cc2)C2CCCC2)[C@@H]2C(=O)CO[C@@H]21 ... 5.8
CC[C@@H]1CN(C(=O)[C@@H](NC(=O)c2ccc(N3CCN(C)CC3)cc2)C2CCCC2)[C@@H]2C(=O)CO[C@H]12 ... 7.3
CC(C)[C@H]1CN(C(=O)[C@@H](NC(=O)c2ccc(N3CCN(C)CC3)cc2)C2CCCC2)[C@@H]2C(=O)CO[C@H]12 ... 18.9
C[C@@H]1CN(C(=O)[C@@H](NC(=O)c2ccc(N3CCN(C)CC3)cc2)C2CCCC2)[C@@H]2C(=O)CO[C@H]12 ... 8.7
CC(C)C[C@H](NC(=O)c1ccc(N2CCN(C)CC2)cc1)C(=O)N1C[C@H](C)[C@H]2OCC(=O)[C@H]21 ... 11.6
CC(C)C[C@H](NC(=O)c1ccc(N2CCN(C)CC2)cc1)C(=O)N1C[C@@H](C(F)F)[C@H]2OCC(=O)[C@H]21 ... 5.7
CC(C)C[C@H](NC(=O)c1ccc(N2CCN(C)CC2)cc1)C(=O)N1C[C@@H](C)[C@H]2OCC(=O)[C@H]21 ... 3.5

# get_value(readout='fold improvement in in vitro potency against human cathepsin K', item= `CC[C@H]1CN(C(=O)[C@@H](NC(=O)c2ccc(N3CCN(C)CC3)cc2)C2CCCC2)[C@@H]2C(=O)CO[C@H]12` )
22.9

# get_value(readout='fold improvement in in vitro potency against human cathepsin K', item= `CC(C)C[C@H](NC(=O)c1ccc(N2CCN(C)CC2)cc1)C(=O)N1C[C@H](C(F)F)[C@H]2OCC(=O)[C@H]21` )
10.9
